- measured-on: T1, Human CD100 (human, UniProt Q92854 22-734, limits assumed)
- T1 construct: also called SEMA4D; Hu CD100
- T1 sequence (looked up): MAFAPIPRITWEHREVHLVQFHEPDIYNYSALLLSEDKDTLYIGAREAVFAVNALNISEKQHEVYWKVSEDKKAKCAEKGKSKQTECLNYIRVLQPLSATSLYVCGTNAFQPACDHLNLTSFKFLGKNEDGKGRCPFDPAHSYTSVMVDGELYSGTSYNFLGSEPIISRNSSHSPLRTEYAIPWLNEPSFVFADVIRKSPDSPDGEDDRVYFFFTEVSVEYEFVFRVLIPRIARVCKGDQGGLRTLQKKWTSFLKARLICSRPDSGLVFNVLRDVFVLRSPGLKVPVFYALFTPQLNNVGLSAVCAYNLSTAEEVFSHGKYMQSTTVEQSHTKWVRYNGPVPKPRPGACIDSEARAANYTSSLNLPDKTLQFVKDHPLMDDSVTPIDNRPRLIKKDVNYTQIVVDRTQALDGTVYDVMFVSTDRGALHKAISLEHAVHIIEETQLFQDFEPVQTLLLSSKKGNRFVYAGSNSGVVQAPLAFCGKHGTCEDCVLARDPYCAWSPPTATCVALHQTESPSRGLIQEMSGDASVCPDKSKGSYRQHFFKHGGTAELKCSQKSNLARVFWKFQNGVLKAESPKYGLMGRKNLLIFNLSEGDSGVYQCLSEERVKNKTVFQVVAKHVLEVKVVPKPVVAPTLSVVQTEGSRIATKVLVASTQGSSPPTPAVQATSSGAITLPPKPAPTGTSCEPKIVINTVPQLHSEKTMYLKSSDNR
- measurement-description: affinity testing, method and unit not printed in Example 10 (nM as in Table 3)
Consider the following binders; for each one, report its pKd.
One number for each entry, as −log10 of the molar value.

[
  {
    "binder": "MAb 2278 (antibody, V domains shown, Double mutant of H1651 with L284; also called H1651 Q6A Y60F with L284) VH: QVQLVASGAEVKKPGSSVKVSCKASGYTFTDYYMDWVRQAPGQGLEWMGRVNPYHGGATFNQKFKGRVTITADKSTSTAYMELSSLRSEDTAVYYCAREENSYDGYYGMDYWGQGTLVTVSS VL: DIVMTQSPLSLPVSPGEPATINCKSSQSLFNSGNQKNYLAWYLQKPGQPPKLLIYGASTRESGVPDRFSGSGSGTDFTLTISSLQAEDVAVYYCQNDHTYPYTFGQGTKLEIK",
    "readout-number": 9.96
  },
  {
    "binder": "MAb 2280 (antibody, V domains shown, Double mutant of H1651 with L284; also called H1651 K23T D31K with L284) VH: QVQLVQSGAEVKKPGSSVKVSCTASGYTFTKYYMDWVRQAPGQGLEWMGRVNPYHGGATYNQKFKGRVTITADKSTSTAYMELSSLRSEDTAVYYCAREENSYDGYYGMDYWGQGTLVTVSS VL: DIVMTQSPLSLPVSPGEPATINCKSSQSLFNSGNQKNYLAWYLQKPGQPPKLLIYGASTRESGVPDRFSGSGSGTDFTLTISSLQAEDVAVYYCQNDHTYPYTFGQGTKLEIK",
    "readout-number": 9.89
  }
]

Attention now shifts to the item below.
Qu. # query: pKd of entry MAb 2284 (antibody, V domains shown, Double mutant of H1651 with L284; also called H1651 K23T Y60F with L284) VH: QVQLVQSGAEVKKPGSSVKVSCTASGYTFTDYYMDWVRQAPGQGLEWMGRVNPYHGGATFNQKFKGRVTITADKSTSTAYMELSSLRSEDTAVYYCAREENSYDGYYGMDYWGQGTLVTVSS VL: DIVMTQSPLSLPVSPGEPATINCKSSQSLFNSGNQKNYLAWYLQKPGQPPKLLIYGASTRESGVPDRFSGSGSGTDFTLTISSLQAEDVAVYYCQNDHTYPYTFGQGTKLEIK
Ans. 9.62
